The values you see were collected from patent US20130336893A1.

Let's look at some binders and their measured EC50 hGlucagonR (cAMP formation).
Molecular target: human glucagon receptor (human, UniProt P47871 26-477)
Sequence (P47871 26-477): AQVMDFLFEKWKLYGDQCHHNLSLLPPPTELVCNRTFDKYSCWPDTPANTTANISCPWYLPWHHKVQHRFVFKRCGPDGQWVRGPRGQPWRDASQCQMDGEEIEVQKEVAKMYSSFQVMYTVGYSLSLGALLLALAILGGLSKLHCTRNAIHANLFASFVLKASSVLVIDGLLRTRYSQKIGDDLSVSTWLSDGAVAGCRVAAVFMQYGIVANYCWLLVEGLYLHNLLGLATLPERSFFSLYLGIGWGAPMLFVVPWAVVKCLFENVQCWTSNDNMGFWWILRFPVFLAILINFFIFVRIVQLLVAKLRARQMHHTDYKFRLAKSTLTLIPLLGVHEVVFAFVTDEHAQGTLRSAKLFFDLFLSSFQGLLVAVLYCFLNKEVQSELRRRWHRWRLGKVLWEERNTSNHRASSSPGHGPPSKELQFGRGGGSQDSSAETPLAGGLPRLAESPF
Experiment: cell-based or functional assay
*1 amine or outer side, *2 acyl side, *3 side chain or, on linkers, in order; H or OH if unused. Where no end group is shown, it is not given here. Side-chain parts run from the residue outwards. [ ]: non-standard residue; d: D form. The star is where a group is joined. γGlu = O=C(O)[C@H](CCC(=O)[*:2])N[*:1]; Palmitoyl = CCCCCCCCCCCCCCCC(=O)*
Field: numeric (nM). Do not append units.

Solved cases below.
binder="HSEGTFTSDLSKQMDSRRAQDFIEWLKNGGPSSGAPPPS-NH2 [SEQ ID NO: (10)]" value_reported=16.7
binder="HSQGTFTSDLSKQMDSRRAQDFIEWLKNGGPSSGAPPPK(Palmitoyl)-NH2 [SEQ ID NO: (21)]" value_reported=0.547
binder="H[dS]QGTFTSDLSKQMESRRAQDFIEWLKSGGPSSGAPPPSK([γGlu-aleuritolyl])-NH2 [SEQ ID NO: (93)]" value_reported=1.87
binder="Ac-H[dS]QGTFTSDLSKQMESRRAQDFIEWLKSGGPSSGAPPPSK([γGlu-Palmitoyl])-NH2 [SEQ ID NO: (83)]" value_reported=0.375

Now examine the next entry.
For this binder ( HSQGTFTSDLSKQMDKRRAQDFIEWLKNGGPSSGAPPPS-NH2 [SEQ ID NO: (19)] ), measured EC50 hGlucagonR (cAMP formation) is 0.052
